Measured Product formed, Plasmin, listed per entry for reference.
# tested_system: bovine plasmin (Bos taurus)
# Construct: Freshly prepared solutions of bovine thrombin and bovine plasmin, from reconstituted lyophilized powders (Sigma); purchased Sigma
# Sequence (P06868 584-812 limits assumed): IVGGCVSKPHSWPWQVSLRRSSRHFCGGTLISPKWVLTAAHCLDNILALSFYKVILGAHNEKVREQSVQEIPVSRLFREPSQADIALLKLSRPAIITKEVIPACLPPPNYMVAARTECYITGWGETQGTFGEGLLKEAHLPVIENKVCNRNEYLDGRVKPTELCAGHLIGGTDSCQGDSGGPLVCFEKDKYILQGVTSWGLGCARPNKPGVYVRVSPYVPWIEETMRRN
# Sequence (P06868 104-583 limits assumed): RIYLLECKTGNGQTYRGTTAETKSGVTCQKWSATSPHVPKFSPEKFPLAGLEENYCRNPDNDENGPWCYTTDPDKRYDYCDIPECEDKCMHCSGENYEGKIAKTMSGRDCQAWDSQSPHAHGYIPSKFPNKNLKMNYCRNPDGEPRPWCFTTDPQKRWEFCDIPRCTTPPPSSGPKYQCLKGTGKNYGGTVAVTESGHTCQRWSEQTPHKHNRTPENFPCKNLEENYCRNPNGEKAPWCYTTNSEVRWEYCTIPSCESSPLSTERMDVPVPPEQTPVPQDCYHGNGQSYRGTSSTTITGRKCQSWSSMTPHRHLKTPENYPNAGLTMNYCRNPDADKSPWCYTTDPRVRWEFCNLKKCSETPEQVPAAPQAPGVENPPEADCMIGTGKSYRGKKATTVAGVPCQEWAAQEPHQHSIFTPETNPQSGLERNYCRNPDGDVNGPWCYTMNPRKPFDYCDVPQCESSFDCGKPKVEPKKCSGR
# assay_remarks: metaprobe hydrolysis in solution by purified plasmin
# Type: biochemical
# details: 1 WHO unit, pH 8.4, 37° C., 15 minutes

molecule: CCO[13C](=O)c1ccc(NC(=O)[C@H](CCCNC(=N)N)NC(=O)[C@@H]2CCCN2C(=O)[C@@H](Cc2ccccc2)NC(C)=O)cc1 [Substrate I]
result_units: nmol/min/mL
Product formed, Plasmin: 1.8

molecule: CCO[13C](=O)c1ccc(NC(=O)C(CCCNC(=N)N)NC(=O)C2CCCN2C(=O)CNC(C)=O)cc1 (stereo not drawn) [Substrate III]
result_units: nmol/min/mL
Product formed, Plasmin: 3.6

molecule: CCO[13C](=O)[C@H](CC)NC(=O)[C@H](CCCNC(=N)N)NC(=O)[C@@H]1CCCN1C(=O)CNC(C)=O [Substrate IV]
result_units: nmol/min/mL
Product formed, Plasmin: 3.1

###

Measured Product formed, Plasmin, listed per entry for reference.
# tested_system: bovine plasmin (Bos taurus)
# Construct: Freshly prepared solutions of bovine thrombin and bovine plasmin, from reconstituted lyophilized powders (Sigma); purchased Sigma
# assay_remarks: metaprobe hydrolysis in solution by purified plasmin
# Assay type: biochemical
# details: 1 WHO unit, pH 8.4, 37° C., 15 minutes

compound: CCO[13C](=O)c1ccc(NC(=O)[C@H](CCCCN)NC(=O)[C@H](CC(C)C)NC(=O)[C@@H](N)CC(C)C)cc1 [Substrate V]
result_units: nmol/min/mL
Product formed, Plasmin: 7.2
//
compound: CCO[13C](=O)[C@H](CC)NC(=O)[C@H](CCCCN)NC(=O)[C@H](CC(C)C)NC(=O)[C@@H](N)CC(C)C [Substrate VI]
result_units: nmol/min/mL
Product formed, Plasmin: 8.1
//
compound: CCO[13C](=O)[C@H](CC)NC(=O)[C@H](CCCNC(=N)N)NC(=O)[C@@H]1CCCN1C(=O)[C@@H](Cc1ccccc1)NC(C)=O [Substrate II]
result_units: nmol/min/mL
Product formed, Plasmin: 2.3

###

# tested_system: bovine thrombin (Bos taurus, UniProt P00735)
# Construct: Freshly prepared solutions of bovine thrombin and bovine plasmin, from reconstituted lyophilized powders (Sigma); purchased Sigma
# assay_remarks: metaprobe hydrolysis in solution by purified thrombin
# Assay type: biochemical
# details: 0.5 NIH unit per ml, pH 8.4, 37° C., 15 minutes

molecule: CCO[13C](=O)c1ccc(NC(=O)[C@H](CCCNC(=N)N)NC(=O)[C@@H]2CCCN2C(=O)[C@@H](Cc2ccccc2)NC(C)=O)cc1 [Substrate I]
Product formed, Thrombin [nmol/min/mL]: 6.0
--
molecule: CCO[13C](=O)[C@H](CC)NC(=O)[C@H](CCCCN)NC(=O)[C@H](CC(C)C)NC(=O)[C@@H](N)CC(C)C [Substrate VI]
Product formed, Thrombin [nmol/min/mL]: 0.4
--
molecule: CCO[13C](=O)[C@H](CC)NC(=O)[C@H](CCCNC(=N)N)NC(=O)[C@@H]1CCCN1C(=O)[C@@H](Cc1ccccc1)NC(C)=O [Substrate II]
Product formed, Thrombin [nmol/min/mL]: 6.9
--
molecule: CCO[13C](=O)c1ccc(NC(=O)[C@H](CCCCN)NC(=O)[C@H](CC(C)C)NC(=O)[C@@H](N)CC(C)C)cc1 [Substrate V]
Product formed, Thrombin [nmol/min/mL]: 0.3
--
molecule: CCO[13C](=O)[C@H](CC)NC(=O)[C@H](CCCNC(=N)N)NC(=O)[C@@H]1CCCN1C(=O)CNC(C)=O [Substrate IV]
Product formed, Thrombin [nmol/min/mL]: 7.8
--
molecule: CCO[13C](=O)c1ccc(NC(=O)C(CCCNC(=N)N)NC(=O)C2CCCN2C(=O)CNC(C)=O)cc1 (stereo not drawn) [Substrate III]
Product formed, Thrombin [nmol/min/mL]: 6.6
